assay_notes: soluble fraction after stress (log2 fold change); higher = more stays soluble; pooled small domains, quantitative proteomics
assay_setup: stress: 50 degC
measurement_name: soluble fraction (log2)
// no unit, no text: just the number

// query soluble fraction (log2) value for entry HMPGVTTQLHRLNGTEETYIIKRGDGVLEIDGEKSELQLGDAIIIPAGASQKISNIGDEDLE
-0.346

HMDTLKDFISGVSIVFENKYSVGDNVTIGDFRGDVIELGMKTTKIRAYTGEVLIIPNHLVEKVINH , same question.
-1.51

Now this one: HMQANLPFSELLADVDRGLISDVTIKGDQVSGHYTDGRTFNTFIPPEADLVRRLTEKNVRIAAVPD
-0.111

Moving on to HMAAPELLTVRERQVAALISDGLSNQQIAHRLHLEVTTVKAHIGSIFNRLDMNNRVQIAIWAHDRQLVFS
-0.266

Quick one: HMETGGLAQEAERELALLQEQIAHHEALYRKGTPEISDGAFDELFDRYQELADSLGVPADERIDRA
-0.0378

Try the sequence HMSGQLTEEQVKQIVTTAVKNSSGSTLTAAEVSRIVSTAVANNLTADQVKTVVNNALAGITTDISTLKA
0.0898

Similarly, HMAPAGGITRQDLFAWGLMGGEGSREKRQQLKKSLGLPSHLGTSGFLDALNLIATRDQVEALLHK ?
-0.15

// next record HMSASEKLFEARKNLNIVNVLGKNPVDRYDIVKILKHGDHYHIYDSKGNEGITYTNPKSLYPEAEFGEYQG
0.12

And then HMEANPLTDREKEVLELVADGKNTKEIAQELSIKSGTVRNYISMILEKLEVKNRIEAITRSKEKGWF , what is it?
0.144

How about HMLIIDLPDFTNKKLSELQQWADANQITLKIVEKDVSSKPYDTILEQTPAKNKYEKIVKGSTMTVTVNIK ?
-0.562

Would you mind doing HMYFGNSLFQARKRSGLSQEGVAEKLGVSRQTVSKWETGETVPDIYQSKKMARLYGVSLDEL as well?
0.0951

For HMPVFYVTGNRVNFRAGPSTGDRVIGSLSQGAAVEVLGPTDDAWINIRDSDGRVGYMSAQFLSQ then?
-0.069

And then HMVVLPGEVLRINVIQEGKEHGQGVGYMDDGTMVVIENGREFIGEYMEVNVTKVLQTAAGRMIFGRVD , what is it?
-0.526

Moving on to the next sequence: HMNYTSEDIKLASELFFHLLNNRILPANDVLASQYYDNNEIREILENMAEEGGLRIFGTRENLHLVSNGE
-0.432

Can you handle HMGDLKSLIQATMDDAGISIKPDAMDYLISHLGSDRLTTRAELDKLILYAGADDKLDLDSVVELVG next?
-0.0746

// query: HMFAADIGVGIVDADSLRVRSEPSTGAPIVTSLLRGTQVTVQEKLDGWYRITYNDVSGFVSAEYLIFTADE
-0.241

Please answer likewise for HMPYIVNHIHLKSEDPKITADWFVKAFNFEIVSDVVRHFGDRFIVTKAEGGMTINISGVRDGEEL
-0.0655

----------
assay_notes: soluble fraction after stress (log2 fold change); higher = more stays soluble; pooled small domains, quantitative proteomics
assay_setup: stress: 50 degC
Decide by soluble fraction (log2): equal to or exceeding -0.3 means TRUE, less means FALSE.

Could you please find out whether HMSGSFDVTLDYLNSLRNLYPAIDVEQEFRKMYAWLDSNPKNRKTERGIKRFITGWLGRAQDKAP has soluble fraction (log2) that meets -0.3 or exceeds it?
FALSE

Now the sequence HMQDTVKNVFGAFTIFTDKPFAIGDTINVNGLEGTVVDVGMRSTQILGYDRRITSYPNYKITDSSIVNISS
TRUE

Repeat with HMSLPTYVQISEAIARRITAGQWLDGERLPPERTMAAEFGVAVGTLRKALSRLQDQKLLRRLQGSGNYINI
FALSE

Please do the same for HMNAEQLAQVRRQKIGFIFQDFRLFPEYTVRDNILIPFYLDHRAPDEQMLHKLTGILGIAGKLHSRPAQL as well.
TRUE

Now try HMAGDVVVEVVGKVRDPQVVTLPKGSRVQDALEAAGGVKPGVNTTDQNLARLLVDGEQIRIGLSS .
TRUE

What do we get for HMSTRKAFVNGDGVRLRSGPGTNHSIRASLTKGQTVFVTGTKDGWASVSVQGGASGWVSADLLKYE ?
TRUE

Try the sequence HMTELSLSEQAYQQLRRMIVRLDFAPGDVLREEALQEALGMSRTPIREALQRLAREHFVTVIPRRGMFVS
FALSE

----------
assay_notes: soluble fraction after stress (log2 fold change); higher = more stays soluble; pooled small domains, quantitative proteomics
assay_setup: stress: 50 degC
Decision: soluble fraction (log2) >= -0.7 yields T, all other cases yield F.

Quick check: does HMFDFMVLGQAIKKARESKEMTREQLAEILDVAPRHIQSIENEGQYPSFPLFIRLVTMFNISVDQY have soluble fraction (log2) greater than or equal to -0.7?
F

Please do the same for HMTDVRFIDIPVTEHHPWNGMKVRDLQLPPGTLLVFLSHPGEKNTVPHGETVLRSGDVLVLGATAYTGQ as well.
T

What do we get for HMKVYIKDISDLSDKLKSLLIENDIDDSNKLFEVEDQVLLEIKGLGSKTIDKIKDIVTEYLKKNN ?
T

Also check HMADLNQTDIDSITKSVGGVEQYKSLMDWAGKTLSQDAIDSFDDLVNTGNKGSIQLAVNGLVAQYQNDN
T

Next sequence up: HMGGEEINMINLVGLSQSEAENQLAKLKLKIGQVTAEYSDKPSGTVLKQSISANNKVKKGADIDIVVSKG
T

What about HMPDKIDSAAQGILDKLIRNDGFMAVTDKSPPEAIYKLFGVSKKVFKQAIGSLYKNRLITIEDAGLRIIPQ ?
T

Lookup HMIMISKSFEINEDNINKRLDIFLTENLDGLSRGIVQKYISLEQITVNKESSHKDYRLKLDDFIEVKIQAH
F

Now consider HMNENNFIVAMRERLAQFIETSGTSQSRIAKELGVSKSTVSLFLGGTYGGNNQELARNLEQLLSMGAARR and answer again.
F

How about HMNVNVSFTQLRHKAEHAIQAKNWSEARNLLTLATLMRPTHRNVARRLKAVEQRNRLFRRLLLILTHRKV ?
T

Try this sequence next: HMDAHYMEMKGKTGTAFTMLRPAGKIDIEGQIFDAVAEAGFIEKGEAIRVVKYENAQLIVRK
T

Record: HMESGFEAVREVARHGSFANAAKALGVSGPAVSRQVKSLEERLGLVFFHRTTRMVTLTEAGQQLVDTLD
T

Repeat for the following sequence: HMALHLPTTTINGRQYYYFKSKEKITVYGLSKRLGLTRQEIVEHNPSAVDGIKRGSTLYFPVDEFAD
F

Note, next up: HMRNMTDYLTIVRAVYGGLSQRQAATTYHVSRNTVSLLIRHAKNQGWLTVEDLSRADAAAFSPA
T

Check HMKGTSIELIVPQDIAGLRLDQVLAKLLPQWSRSRLQSWINEKHITVNGQTTTAKQKLWGNETIQIIPPI too.
T

Again, but for HMRMDKHLWLSLLRLINEGSAEELQTKKDELLQSLERLRITRGPVRGDVLRVVRLIDEELVSRLHLDQR
F

Lookup HMASMHDGVAARLRAMVFERELAPGEFIDERRLAQQWQISRTPLREALKVLAAEGLVELVPRRGARVV
T

Field entry: HMIERLVEFVHTLRHSGVRVSMAEAMDAAEALRHTPITERQIFKTALQSVLVKEHQDIPAFDAAFERFFL
F

----------
Hi there, I'd appreciate the recorded soluble fraction (log2) for every entry that follows.
assay_notes: soluble fraction after stress (log2 fold change); higher = more stays soluble; pooled small domains, quantitative proteomics
assay_setup: stress: 50 degC
Reply with just the number.

Quick one: soluble fraction (log2) for HMEVSEGEIREKVESVFSSNPRQAYNYKQISKKLNINDKSERQIVWDVLRKLAGSGKIQEVEHGRFRARAE ?
0.122

And the next one, HMGVDKLTPREREVLALMAQGASNREIEGKLVLTAGAVSKHVANVFMKLGFSPEDENRRVKAVLAWLRTK ?
-1.05

Another: HMFYWTDLIGLDVINTADERLGKVVGLIETGANAVLRVMGDDQVERLLPFGSAVVLTVEKEAGQIRVEW
-0.89

Here is the next sequence: HMERNAEDFAAKYQEIYQDMFRFALYTLKNRQEAEDVVSETVLDAWKGIEGLKNESAFSAWMFRILVNK
0.152

Can you check HMTPFVINVDRHGAVIINEKTVDIDEAVVLARQERSQGKSILLAGDKKAPYEAIIRVLDALKQAG next?
-0.185

For HMVAQQINDFRSERDASTGTLKRPLFDTLRDVISSRAQAYVSATGKPVTVEDLDRIYQAVEAEAKQAL then?
0.0781

What do we get for HMYPGQILEIYLDEIKRLYLNGLSSADIFAEIKEGSIPSVKKAIRSMKDGSAPVKITEAEESTRIAPS ?
-0.441

Follow-up item: HMPDLKIGKDHRLAEYIETKIAEDGYSPGAVLGEIKAKGLEFETEISKPTLYSYIDKGIFLTITNKELPV
0.105

Same lookup for HMKYTVKSPLPGVIMSVLVKVGDTVKASDTVISLEAMKMENAIHAGRDGKVTSIDVNVGDSVLEGHTLVTI , please.
-0.386

HMEAAETAVVTGTIVNIRSGPTLDFEAFAQVKQGDRLPVLDKFYNWYYVKLPSGVNGWISGQLVRIEQ ?
-0.25

Moving on to HMWPTPRTWSALMNELNLYKENHGYANIVDIPSEKIRRMADGIIGEDMAVRYVAFLQSHASS
-1.6

Same read-out for HMTLHDLFPQAVEFVSEKEMISTAELQRKLMISYNSAAKIIDQLLHVDFIQKSESAGKYSVLIK ?
-2.31

Query HMDMRLADLIGRDGITITFMRPSGKVEIDGEIYDAVSDVGLIDKNEEVEVIKFENAQLVVTKKNKN next
-0.0621

Do the same for HMYNIDSFMTKNYPTMERFTLSDVQKKYKTTFGLFVKQDELASMIEKTGRFNITSSKNVKYVNR please
-1.77

// same read-out, input: HMTGSETLQDIFAHLEAGTVRTALSLIPRLDAVEYEQNRQRIAELAGVRPSALDDLRKQAKREEN
0.519

Try this sequence next: HMTGLSNFEFNQIKLDLMHELTQTPLRLTDLVNRITSFENEKTITVIRFLVDEGILLLKDDTLSVAKID
-0.542

Likewise for HMHANSDVEQLMQMGIQRLNFQRYSDALLIFNQIIENFPDYAEAWNKRATLHYLLGNLDKSIADIEQTLE ?
-2.54

Another sequence to look at: HMYYNQGILKSGASVYGEPGITSSHRLEIPSGSFVDIVQEKDEWVYYEKNHVNHGWVLRENIYIPSL
0.0681

Now give it for HMELRIREILESKDIKVSSLAETVGITRANMSNIVNGKSTPSLETLEKIANALGVDITELFA too.
0.116

Check HMNSNQESFENWLSANSWYNKDRAMRVFADSLGQELRNSGVSFEKALTQISAEVRKEFSHKFQ too.
-0.163

Now the same for HMEEIDLTPAEEILNKLPDNSRGYLIPTLNKIQNAYRFLPDPAMELLMEFFNVSRAEIFGVISFYPQLMI
-0.0574

Please answer likewise for HMGDEHYDTISAFIKSVRGSDPDAALYWLAKMILAGEDPRFILRRLIVLSGEDIGLADPQGI
-0.653

// repeat for HMRSQLALVVRTGESQRLDNFLVNNLAWKSRNRLQGLIREGLVTVNGEKTKASRRVHLDDLVEIHL and report
-1.25

What do you have for HMADWTETELAALRRAYASGTTRVSYDGKSVDYGSAEDLLSRIRTLQGAASDVAADAVAAVDA ?
0.0524

What do we get for HMKSIFIRADELAAELDVSKALAYKMINQWNEELKAKGYTTVGGRVSRQYYYEKIYGAENVFDF ?
-2.37

HMDKWFPVSSDHKVQVGDYLRTADGLVKVEATHNEYGTFYGKIITAIHDDVVKGETYEYRIDDVQVLA , same question.
-0.0324

What do you get for HMSYIGEEKAKSIAVSNVKGAGTNNVVKVEFDYDDGRAVYEVKVVYNAMEYEFEIDASNGKILSRDAESIY ?
-0.309

For HMMKLSKRQEQIIAVVKEHQPVSGERISDILAVSRATLRSDLSFLTLSGILKASPKVGYTYES then?
-1.12

Further, for HMAIDPLLDKGYEQYDKGEFTEAVKSFNRAIEIDPKNAEAHFLRAMTYQGLALSKLAVADLEKAIV ?
0.136

Next sequence up: HMFGELTPDTAKRFLLTAREQEMASLIAQGLTNKEIAFRLGISEATVRTHIYNLFQKVGVQSRIELLNVLH
-0.289

// same read-out, input: HMHKYQVGETVYYTSPTFGRAAATGSYIVVKLLPSEGDDYQYRIKSSGEAFERVAKESQLDR
-0.734

Field entry: HMYPEETVNKILDVSMQLFLEKGYEHTSIQDIVNHLGGLSKGAIYHHFKSKEDILDGVMNKLYQNN
-0.816

Just for reference, the domain aggregation screens of Martell et al. (2025) is where these values come from.
